# measurement.setup: rat, in vivo, 60 min
value.kind: Heart (% injected dose)

{"columns": ["compound", "scale.unit", "numeric.value"],
 "data": [
  ["COCP(C)CCP(C)COC (stereo not drawn)", "% injected dose", 1.42],
  ["COCP(C)CCP(C)C (stereo not drawn)", "% injected dose", 0.94]
]}

----------
Each record here notes measured Heart.
# measurement.setup: rat, in vivo, 2 min

{"columns": ["molecule", "Heart, % injected dose/organ"],
 "data": [
  ["COC(CC(OC)P(C)C)P(C)C.COC(CC(OC)P(C)C)P(C)C.COC(CC(OC)P(C)C)P(C)C.[99Tc+] (stereo not drawn)", 1.30],
  ["COCC(COC)(CP(C)C)CP(C)C.COCC(COC)(CP(C)C)CP(C)C.O=[N][99Tc+][Cl].[Cl-]", 1.56]
]}
